target: UniProt Q12809; test: hERG channel inhibition assay (patch-clamp, CHO hERG cells); conditions: CHO hERG cells, whole-cell patch-clamp
Sequence (Q12809 whole entry): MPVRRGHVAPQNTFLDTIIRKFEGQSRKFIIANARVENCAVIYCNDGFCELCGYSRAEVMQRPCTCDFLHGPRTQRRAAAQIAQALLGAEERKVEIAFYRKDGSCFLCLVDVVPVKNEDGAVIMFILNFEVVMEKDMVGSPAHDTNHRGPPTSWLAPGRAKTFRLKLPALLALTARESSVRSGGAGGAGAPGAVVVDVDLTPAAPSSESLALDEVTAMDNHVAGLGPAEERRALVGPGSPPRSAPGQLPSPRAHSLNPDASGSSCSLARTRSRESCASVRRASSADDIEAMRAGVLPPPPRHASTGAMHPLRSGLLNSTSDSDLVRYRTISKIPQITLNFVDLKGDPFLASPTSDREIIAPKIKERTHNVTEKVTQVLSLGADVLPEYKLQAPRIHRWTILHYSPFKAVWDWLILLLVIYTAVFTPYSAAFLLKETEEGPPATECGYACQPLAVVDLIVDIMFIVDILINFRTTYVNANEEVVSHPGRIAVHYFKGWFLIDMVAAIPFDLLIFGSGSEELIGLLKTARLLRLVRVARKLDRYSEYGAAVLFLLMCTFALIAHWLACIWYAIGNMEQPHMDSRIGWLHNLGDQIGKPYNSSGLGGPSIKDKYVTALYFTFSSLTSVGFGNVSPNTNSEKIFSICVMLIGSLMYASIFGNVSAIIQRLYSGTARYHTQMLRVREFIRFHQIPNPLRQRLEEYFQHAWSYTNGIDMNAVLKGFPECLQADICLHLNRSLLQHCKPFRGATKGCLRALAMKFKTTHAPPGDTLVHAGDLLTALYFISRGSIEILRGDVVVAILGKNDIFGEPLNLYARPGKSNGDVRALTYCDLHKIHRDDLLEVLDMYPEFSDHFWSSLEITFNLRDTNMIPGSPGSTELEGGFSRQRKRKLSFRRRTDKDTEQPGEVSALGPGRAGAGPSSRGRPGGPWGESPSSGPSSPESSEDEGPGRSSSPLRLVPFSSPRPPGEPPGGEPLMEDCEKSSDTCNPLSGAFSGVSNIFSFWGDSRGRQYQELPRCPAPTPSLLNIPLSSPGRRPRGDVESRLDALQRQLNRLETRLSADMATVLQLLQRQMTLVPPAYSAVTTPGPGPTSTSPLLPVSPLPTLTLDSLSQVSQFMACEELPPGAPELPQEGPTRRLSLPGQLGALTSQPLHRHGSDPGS
attribute measured: IC50

Here is how some molecules turned out for IC50.
C[C@@H]1CN(c2ccc(C#N)c3ncccc23)C[C@H](CN2CCN(c3cc4c(cn3)CCN[C@@H]4C)CC2)O1 (single isomer, unassigned)
> 20 µM
C[C@@H]1CN(c2ccc(C#N)c3ncccc23)C[C@H](CN2CCN(c3ccc(Cl)cc3)CC2)O1 [Example R2, reference compound]
0.77 µM
C[C@@H]1CN(c2ccc(C#N)c3ncccc23)C[C@H](CN2CCN(c3ccc4c(c3)CN(CCO)C4)CC2)O1
> 20 µM
COc1ccc(N2CCN(C[C@H]3CN(c4ccc(C#N)c5ncccc45)C[C@@H](C)O3)CC2)cc1 [Example R1, reference compound]
2.74 µM
C[C@@H]1CN(c2ccc(C#N)c3ncccc23)C[C@H](CN2CCN(c3ccc4c(n3)CNCC4)CC2)O1
> 20 µM
C[C@@H]1CN(c2ccc(C#N)c3ncccc23)C[C@H](CN2CCN(c3cc4c(cn3)CCNC4)CC2)O1
> 20 µM
C[C@@H]1CN(c2ccc(C#N)c3ncccc23)C[C@H](CN2CCN(c3ccncc3)CC2)O1 [ER-888286, reference compound]
1.3 µM
C[C@@H]1CN(c2ccc(C#N)c3ncccc23)C[C@H](CN2CCN(c3cnc4c(c3)CCNC4)CC2)O1
> 20 µM
C[C@@H]1CN(c2ccc(C#N)c3ncccc23)C[C@H](CN2CCN(c3ccccc3)CC2)O1 [ER-887258, reference compound]
2.78 µM
C[C@@H]1CN(c2ccc(C#N)c3nccnc23)C[C@H](CN2CCN(c3cnc4c(c3)CNC4)CC2)O1
> 20 µM

Query: Answer with the recorded IC50 of C[C@@H]1Cc2cc(N3CCN(C[C@H]4CN(c5ccc(C#N)c6ncccc56)C[C@@H](C)O4)CC3)ncc2CN1 (single isomer, unassigned) only.
Response: > 20 µM

Query: Answer with the recorded IC50 of C[C@@H]1CN(c2ccc(C#N)c3ncccc23)C[C@H](CN2CCN(c3ccc4c(c3)CCNC4)CC2)O1 only.
Response: > 20 µM
